Values from patent US12295997B2

- Tested on: CD8+ and CD4+ T cells (autologous CD3+ Pan-T cells isolated from human normal PBMCs)
- assayExplanation: Exogenous autologous normal donor restimulation assay (15-mer overlapping peptide pools on CD1c+ dendritic cells, TNFα/IFNγ flow cytometry)
- Format: cell-based
- settings: Table 25; 15-mer overlapping peptide pool; highest frequency across normal donors
Listed next: entries and their corresponding Maximum Frequency of TNFα/IFNγ Double Positive CD4+ T cells.
Give the figure by itself; no unit, no explanation.

orderedresidues="QPDSFAALHSSLNELGE (listed as Homo sapiens) [Neoantigen M86, AR L702H]" target="CD8+ and CD4+ T cells (autologous CD3+ Pan-T cells isolated from human normal PBMCs)" endpointvalue=0.05
orderedresidues="CEERGAAGSLISCE (listed as Homo sapiens) [FUS6, TMPRSS2->ERG gene fusion]" target="CD8+ and CD4+ T cells (autologous CD3+ Pan-T cells isolated from human normal PBMCs)" endpointvalue=0.016
orderedresidues="NSKMALNSLNSIDDAQLTRIAPPRSHCCFWEVNAP (listed as Homo sapiens) [Neoantigen P35]" target="CD8+ and CD4+ T cells (autologous CD3+ Pan-T cells isolated from human normal PBMCs)" endpointvalue=0.03
orderedresidues="IARELHQFAFDLLIKSH (listed as Homo sapiens) [Neoantigen M84, AR T878A]" target="CD8+ and CD4+ T cells (autologous CD3+ Pan-T cells isolated from human normal PBMCs)" endpointvalue=0.31

Please look at the following sequence next.
Query: Maximum Frequency of TNFα/IFNγ Double Positive CD4+ T cells; subject: YEAGMTLGEKFRVGNCKHLKMTRP (listed as Homo sapiens) [Neoantigen P82]
0.17
